Assignment: determine reported MIC for the given compounds.
# Tested on: Staphylococcus aureus
# test summary: Compound tested for the activity against Staphylococcus aureus strain 9
# Format: functional
Peptide text beside a SMILES is read from it.

Query: Give a short answer stating reported MIC for CC(C)C[C@H](NC(=O)[C@H](CCCCN)NC(=O)[C@H](CC(C)C)NC(=O)[C@H](Cc1c[nH]c2ccccc12)NC(=O)[C@H](CCCCN)NC(=O)[C@H](CCCCN)NC(=O)[C@H](C)NC(=O)[C@H](Cc1c[nH]c2ccccc12)NC(=O)[C@H](CCCCN)NC(=O)[C@H](CCCCN)NC(=O)[C@H](Cc1c[nH]c2ccccc12)NC(=O)[C@H](CC(C)C)NC(=O)[C@@H](N)CCCCN)C(=O)N[C@@H](Cc1c[nH]c2ccccc12)C(=O)N[C@@H](CCCCN)C(=O)N[C@@H](C)C(=O)N[C@@H](Cc1c[nH]c2ccccc12)C(=O)O (H-KLWKKWAKKWLKLWKAW-OH) .
Result: 25 µg/mL

Query: Give a short answer stating reported MIC for CC(C)C[C@H](NC(=O)[C@H](CCCCN)NC(=O)[C@H](CC(C)C)NC(=O)[C@H](Cc1ccccc1)NC(=O)[C@H](CCCCN)NC(=O)[C@H](CCCCN)NC(=O)[C@H](C)NC(=O)[C@H](Cc1ccccc1)NC(=O)[C@H](CCCCN)NC(=O)[C@H](CCCCN)NC(=O)[C@H](Cc1ccccc1)NC(=O)[C@H](CC(C)C)NC(=O)[C@@H](N)CCCCN)C(=O)N[C@@H](Cc1ccccc1)C(=O)N[C@@H](CCCCN)C(=O)N[C@@H](C)C(=O)N[C@@H](Cc1c[nH]c2ccccc12)C(=O)O (H-KLFKKFAKKFLKLFKAW-OH) .
Result: 50 µg/mL

Query: Give a short answer stating reported MIC for CC(C)C[C@H](NC(=O)[C@H](CCCCN)NC(=O)[C@H](CC(C)C)NC(=O)[C@H](Cc1c[nH]c2ccccc12)NC(=O)[C@H](CCCCN)NC(=O)[C@@H](N)CCCCN)C(=O)N[C@@H](Cc1c[nH]c2ccccc12)C(=O)N[C@@H](CCCCN)C(=O)N[C@@H](C)C(=O)N[C@@H](Cc1c[nH]c2ccccc12)C(=O)O (H-KKWLKLWKAW-OH) .
Result: > 100 µg/mL

====

# Test system: Staphylococcus aureus
# test summary: Compound tested for the activity against Staphylococcus aureus strain 3
# Format: functional
Peptide text beside a SMILES is read from it.
measured metric: MIC (µg/mL)
Respond with the bare value in µg/mL.

Query: Lab note: Staphylococcus aureus assay, enter MIC for CC(C)C[C@H](NC(=O)[C@H](CCCCN)NC(=O)[C@H](CC(C)C)NC(=O)[C@H](Cc1ccccc1)NC(=O)[C@H](CCCCN)NC(=O)[C@H](CCCCN)NC(=O)[C@H](C)NC(=O)[C@H](Cc1ccccc1)NC(=O)[C@H](CCCCN)NC(=O)[C@H](CCCCN)NC(=O)[C@H](Cc1ccccc1)NC(=O)[C@H](CC(C)C)NC(=O)[C@@H](N)CCCCN)C(=O)N[C@@H](Cc1ccccc1)C(=O)N[C@@H](CCCCN)C(=O)N[C@@H](C)C(=O)N[C@@H](Cc1c[nH]c2ccccc12)C(=O)O (H-KLFKKFAKKFLKLFKAW-OH) here
Result: 25

====

# System: Pseudomonas aeruginosa
# test summary: Compound tested for the antimicrobial activity against Pseudomonas aeruginosa strain ATCC 25916
# Assay type: functional
Peptide text beside a SMILES is read from it.
measured metric: MIC (µg/mL)
Respond with the bare value in µg/mL.

Query: Give a short answer stating reported MIC for CC(C)C[C@H](NC(=O)[C@H](CCCCN)NC(=O)[C@H](CC(C)C)NC(=O)[C@H](Cc1ccccc1)NC(=O)[C@H](CCCCN)NC(=O)[C@H](CCCCN)NC(=O)[C@H](C)NC(=O)[C@H](Cc1ccccc1)NC(=O)[C@H](CCCCN)NC(=O)[C@H](CCCCN)NC(=O)[C@H](Cc1ccccc1)NC(=O)[C@H](CC(C)C)NC(=O)[C@@H](N)CCCCN)C(=O)N[C@@H](Cc1ccccc1)C(=O)N[C@@H](CCCCN)C(=O)N[C@@H](C)C(=O)N[C@@H](Cc1c[nH]c2ccccc12)C(=O)O (H-KLFKKFAKKFLKLFKAW-OH) .
Result: 3.12

Query: Give a short answer stating reported MIC for CC(C)C[C@H](NC(=O)[C@H](CCCCN)NC(=O)[C@H](CC(C)C)NC(=O)[C@H](Cc1c[nH]c2ccccc12)NC(=O)[C@H](CCCCN)NC(=O)[C@@H](N)CCCCN)C(=O)N[C@@H](Cc1c[nH]c2ccccc12)C(=O)N[C@@H](CCCCN)C(=O)N[C@@H](C)C(=O)N[C@@H](Cc1c[nH]c2ccccc12)C(=O)O (H-KKWLKLWKAW-OH) .
Result: 25

Query: Give a short answer stating reported MIC for CC(C)C[C@H](NC(=O)[C@H](Cc1c[nH]c2ccccc12)NC(=O)[C@H](CCCCN)NC(=O)[C@H](CCCCN)NC(=O)[C@@H](N)Cc1c[nH]c2ccccc12)C(=O)N[C@@H](Cc1c[nH]c2ccccc12)C(=O)N[C@@H](C)C(=O)N[C@@H](CCCCN)C(=O)N[C@@H](Cc1c[nH]c2ccccc12)C(=O)O (H-WKKWLWAKW-OH) .
Result: 50

====

# System: Pseudomonas aeruginosa
# test summary: Compound tested for the antimicrobial activity against Pseudomonas aeruginosa strain 10
# Assay type: functional
Peptide text beside a SMILES is read from it.
Assignment: determine reported MIC for the given compounds.

Query: Give a short answer stating reported MIC for CC(C)C[C@H](NC(=O)[C@H](CCCCN)NC(=O)[C@H](CC(C)C)NC(=O)[C@H](Cc1c[nH]c2ccccc12)NC(=O)[C@H](CCCCN)NC(=O)[C@@H](N)CCCCN)C(=O)N[C@@H](Cc1c[nH]c2ccccc12)C(=O)N[C@@H](CCCCN)C(=O)N[C@@H](C)C(=O)N[C@@H](Cc1c[nH]c2ccccc12)C(=O)O (H-KKWLKLWKAW-OH) .
Result: 50 µg/mL

Query: Give a short answer stating reported MIC for CC(C)C[C@H](NC(=O)[C@H](C)NC(=O)[C@H](CCCCN)NC(=O)[C@H](C)NC(=O)[C@H](CC(C)C)NC(=O)[C@H](CCCCN)NC(=O)[C@H](C)NC(=O)[C@H](CC(C)C)NC(=O)[C@H](CCCCN)NC(=O)[C@H](C)NC(=O)[C@H](CC(C)C)NC(=O)[C@H](CCCCN)NC(=O)[C@H](CCCCN)NC(=O)[C@H](C)NC(=O)[C@H](CC(C)C)NC(=O)[C@@H](N)CCCCN)C(=O)O (H-KLAKKLAKLAKLAKAL-OH) .
Result: > 100 µg/mL

Query: Give a short answer stating reported MIC for CC(C)C[C@H](NC(=O)[C@H](Cc1c[nH]c2ccccc12)NC(=O)[C@H](CCCCN)NC(=O)[C@H](CCCCN)NC(=O)[C@@H](N)Cc1c[nH]c2ccccc12)C(=O)N[C@@H](Cc1c[nH]c2ccccc12)C(=O)N[C@@H](C)C(=O)N[C@@H](CCCCN)C(=O)N[C@@H](Cc1c[nH]c2ccccc12)C(=O)O (H-WKKWLWAKW-OH) .
Result: > 100 µg/mL

Query: Give a short answer stating reported MIC for CC(C)C[C@H](NC(=O)[C@H](CCCCN)NC(=O)[C@H](CC(C)C)NC(=O)[C@H](Cc1c[nH]c2ccccc12)NC(=O)[C@H](CCCCN)NC(=O)[C@H](CCCCN)NC(=O)[C@H](C)NC(=O)[C@H](Cc1c[nH]c2ccccc12)NC(=O)[C@H](CCCCN)NC(=O)[C@H](CCCCN)NC(=O)[C@H](Cc1c[nH]c2ccccc12)NC(=O)[C@H](CC(C)C)NC(=O)[C@@H](N)CCCCN)C(=O)N[C@@H](Cc1c[nH]c2ccccc12)C(=O)N[C@@H](CCCCN)C(=O)N[C@@H](C)C(=O)N[C@@H](Cc1c[nH]c2ccccc12)C(=O)O (H-KLWKKWAKKWLKLWKAW-OH) .
Result: 25 µg/mL

====

# System: Proteus mirabilis
# test summary: Compound tested for the antimicrobial activity against Proteus mirabilis
# Type: functional
Peptide text beside a SMILES is read from it.
measured metric: MIC

Query: Lab note: Proteus mirabilis assay, enter MIC for CC(C)C[C@H](NC(=O)[C@H](CCCCN)NC(=O)[C@H](CC(C)C)NC(=O)[C@H](Cc1c[nH]c2ccccc12)NC(=O)[C@H](CCCCN)NC(=O)[C@H](CCCCN)NC(=O)[C@H](C)NC(=O)[C@H](Cc1c[nH]c2ccccc12)NC(=O)[C@H](CCCCN)NC(=O)[C@H](CCCCN)NC(=O)[C@H](Cc1c[nH]c2ccccc12)NC(=O)[C@H](CC(C)C)NC(=O)[C@@H](N)CCCCN)C(=O)N[C@@H](Cc1c[nH]c2ccccc12)C(=O)N[C@@H](CCCCN)C(=O)N[C@@H](C)C(=O)N[C@@H](Cc1c[nH]c2ccccc12)C(=O)O (H-KLWKKWAKKWLKLWKAW-OH) here
Result: > 100 µg/mL
